# Tested on: 48 hpf zebrafish embryos
# measurement-context: blind screened between 1 and 200 µM; predominant effect

smiles-record: O=C(O)P(=O)(O)O
Cardiotoxic effect in zebrafish: Bradycardia
//
smiles-record: C[C@]12CC[C@H]3[C@@H](CCC4=CC(=O)CC[C@@]43C)[C@@H]1CC[C@@H]2O
Cardiotoxic effect in zebrafish: Bradycardia
//
smiles-record: CN1CCC[C@H]1c1cccnc1
Cardiotoxic effect in zebrafish: Bradycardia

---

# System: zebrafish embryos
# protocol-text: Automated angiogenesis assay (ISV formation), Flk1:copGFP embryos treated at 22-26 hpf, read at 48 hpf
# Assay type: in vivo
# measurement-context: manually quantified; read-out: IC50 C.V. (complete number of vessels)
quantity-name: IC50

smiles-record: COc1cc2ncnc(Nc3cccc(Cl)c3)c2cc1OC
result: 13 µM

smiles-record: O=C1Nc2ccccc2/C1=C1/Nc2ccccc2/C1=N\O
result: 4.2 µM

smiles-record: COc1cc2nccc(Oc3ccc(NC(=S)NC(=O)c4ccccc4C)cc3)c2cc1OC
result: 0.14 µM

smiles-record: COc1cc(OC)cc(-c2cc3cnc(N)nc3nc2NC(=O)NC(C)(C)C)c1
result: 16 µM
